test: Cmax in Balb/c mouse pretreated with CYP inhibitor ABT at 5 mg/kg, po by LC-MS analysis; assay type: ADME, organism-based; design: dose 5 mg/kg, route oral; settings: in vivo
experimental.readout: Cmax (µM)
One number for each entry, in µM.

If you can, please state the reported Cmax value of NS(=O)(=O)c1cccc(-c2ccc3nccc(-c4ccnc(C(F)(F)F)c4)c3n2)c1 .
2.8

* * *

test: Apparent half life in Balb/c mouse at 2 mg/kg, iv by LC-MS analysis; format: ADME, organism-based; conditions: in vivo, read-out: t1/2(app) (converted)
experimental.readout: half-life (h)
One number for each entry, in h.

If you can, please state the reported half-life value of NS(=O)(=O)c1cccc(-c2ccc3nccc(-c4ccncc4)c3n2)c1 .
2.5

* * *

experiment: Tmax in Balb/c mouse at 20 mg/kg, po by LC-MS analysis; type: ADME, organism-based; details: in vivo
experimental.readout: Tmax

If you can, please state the reported Tmax value of NS(=O)(=O)c1cccc(-c2ccc3nccc(-c4ccncc4)c3n2)c1 .
30 min

* * *

test: Cmax in Balb/c mouse at 20 mg/kg, po by LC-MS analysis; type: ADME, organism-based; parameters: dose 20 mg/kg, route oral; conditions: in vivo
experimental.readout: Cmax (µM)
Numbers only, in µM.

If you can, please state the reported Cmax value of NS(=O)(=O)c1cccc(-c2ccc3nccc(-c4ccncc4)c3n2)c1 .
5

* * *

assay: Cmax in humanized NOD-scid IL2Rgamma null mouse infected with Plasmodium falciparum 3D70087/N9 at […], po up to 96 hrs post dose by LC-MS/MS analysis; format: ADME, organism-based; set-up: dose 2.5 mg/kg, route oral; conditions: in vivo
experimental.readout: Cmax at 96 h
Entry format: amount then unit.

If you can, please state the reported Cmax at 96 h value of NS(=O)(=O)c1cccc(-c2ccc3nccc(-c4ccnc(C(F)(F)F)c4)c3n2)c1 .
750 nM

* * *

experiment: Cmax in humanized NOD-scid IL2Rgamma null mouse infected with Plasmodium falciparum 3D70087/N9 at 10 mg/kg, po up to 96 hrs post dose by LC-MS/MS analysis; format: ADME, organism-based; design: dose 10 mg/kg, route oral; conditions: in vivo
experimental.readout: Cmax
Entry format: amount then unit.

If you can, please state the reported Cmax value of NS(=O)(=O)c1cccc(-c2ccc3nccc(-c4ccnc(C(F)(F)F)c4)c3n2)c1 .
2230 nM

* * *

assay: Metabolic stability in rat liver microsomes assessed as parent compound remaining at 0.1 uM in presence of NADPH after 30 mins by LC-MS/MS analysis; assay type: ADME, microsome; conditions: read-out: Stability
Rule: measured remaining at 0.5 h, 0.1 µM below 60% gets Yes; anything equal to or greater than 60% gets No.

The following compounds have reported results that may help.
mol.smiles: NS(=O)(=O)c1ccc(-c2ccc3nccc(-c4ccncc4)c3n2)cc1
label.class: Yes
--
mol.smiles: NS(=O)(=O)c1cccc(-c2ccc3nccc(-c4ccnc(C(F)(F)F)c4)c3n2)c1
label.class: No
--
mol.smiles: C[C@@H]1CN(S(=O)(=O)c2cccc(-c3ccc4nccc(-c5ccncc5)c4n3)c2)C[C@H](C)N1
label.class: Yes

Is 60% strictly greater than the compound's reported remaining at 0.5 h, 0.1 µM? compound: O=S(=O)(NCc1ccccc1)c1cccc(-c2ccc3nccc(-c4ccncc4)c3n2)c1
Yes

Is 60% strictly greater than the compound's reported remaining at 0.5 h, 0.1 µM? compound: O=S(=O)(NCCN1CCCC1)c1cccc(-c2ccc3nccc(-c4ccnc(C(F)(F)F)c4)c3n2)c1
Yes

Is 60% strictly greater than the compound's reported remaining at 0.5 h, 0.1 µM? compound: O=S(=O)(c1cccc(-c2ccc3nccc(-c4ccncc4)c3n2)c1)N1CCC(O)CC1
Yes

Is 60% strictly greater than the compound's reported remaining at 0.5 h, 0.1 µM? compound: O=S(=O)(NCCN1CCOCC1)c1cccc(-c2ccc3nccc(-c4ccncc4)c3n2)c1
Yes

Is 60% strictly greater than the compound's reported remaining at 0.5 h, 0.1 µM? compound: O=S(=O)(c1cccc(-c2ccc3nccc(-c4ccncc4)c3n2)c1)N1CC[C@H](O)C1
Yes

Is 60% strictly greater than the compound's reported remaining at 0.5 h, 0.1 µM? compound: CS(=O)(=O)Nc1cccc(-c2ccc3nccc(-c4ccncc4)c3n2)c1
Yes

* * *

experiment: Tmax in humanized NOD-scid IL2Rgamma null mouse infected with Plasmodium falciparum 3D70087/N9 at […], po up to 96 hrs post dose by LC-MS/MS analysis; assay type: ADME, organism-based; conditions: in vivo
experimental.readout: Tmax at 96 h (h)
One number for each entry, in h.

If you can, please state the reported Tmax at 96 h value of NS(=O)(=O)c1cccc(-c2ccc3nccc(-c4ccnc(C(F)(F)F)c4)c3n2)c1 .
4

* * *

assay: Cmax in humanized NOD-scid IL2Rgamma null mouse infected with Plasmodium falciparum 3D70087/N9 at 5 mg/kg, po up to 96 hrs post dose by LC-MS/MS analysis; type: ADME, organism-based; design: dose 5 mg/kg, route oral; conditions: in vivo
experimental.readout: Cmax (µM)
Give bare numbers, in µM.

If you can, please state the reported Cmax value of NS(=O)(=O)c1cccc(-c2ccc3nccc(-c4ccnc(C(F)(F)F)c4)c3n2)c1 .
1.47

* * *

assay: Tmax in Balb/c mouse pretreated with CYP inhibitor ABT at 5 mg/kg, po by LC-MS analysis; format: ADME, organism-based; conditions: in vivo
experimental.readout: Tmax (h)
Answers are plain numbers, in h.

If you can, please state the reported Tmax value of NS(=O)(=O)c1cccc(-c2ccc3nccc(-c4ccnc(C(F)(F)F)c4)c3n2)c1 .
1

* * *

test: Tmax in humanized NOD-scid IL2Rgamma null mouse infected with Plasmodium falciparum 3D70087/N9 at 5 mg/kg, po up to 96 hrs post dose by LC-MS/MS analysis; assay type: ADME, organism-based; conditions: in vivo
experimental.readout: Tmax

If you can, please state the reported Tmax value of NS(=O)(=O)c1cccc(-c2ccc3nccc(-c4ccnc(C(F)(F)F)c4)c3n2)c1 .
4 h

* * *

assay: Apparent half life in Balb/c mouse pretreated with CYP inhibitor ABT at 20 mg/kg, po by LC-MS analysis; format: ADME, organism-based; settings: in vivo, read-out: t1/2(app) (converted)
experimental.readout: half-life (h)
Give bare numbers, in h.

If you can, please state the reported half-life value of NS(=O)(=O)c1cccc(-c2ccc3nccc(-c4ccncc4)c3n2)c1 .
3.2

* * *

assay: Metabolic stability in mouse liver microsomes assessed as parent compound remaining at 0.1 uM in presence of NADPH after 30 mins by LC-MS/MS analysis; type: ADME, microsome; conditions: read-out: Stability
Answer each item with its documented remaining at 0.5 h, 0.1 µM.
Give bare numbers, in %.

Worked examples follow.
mol.smiles: CS(=O)(=O)Nc1cccc(-c2ccc3nccc(-c4ccncc4)c3n2)c1
result.unit: %
result.number: 50
//
mol.smiles: O=S(=O)(NCCN1CCCC1)c1cccc(-c2ccc3nccc(-c4ccnc(C(F)(F)F)c4)c3n2)c1
result.unit: %
result.number: 8
//
mol.smiles: NS(=O)(=O)c1ccc(-c2ccc3nccc(-c4ccncc4)c3n2)cc1
result.unit: %
result.number: 13

Your task in this section: give remaining at 0.5 h, 0.1 µM for each listed record.
1. CS(=O)(=O)Nc1ccc2nccc(-c3ccncc3)c2n1
2. O=S(=O)(CCN1CCCC1)c1cccc(-c2ccc3nccc(-c4ccncc4)c3n2)c1

1: 95; 2: 60

* * *

assay: Tmax in Balb/c mouse pretreated with CYP inhibitor ABT at 20 mg/kg, po by LC-MS analysis; type: ADME, organism-based; conditions: in vivo
experimental.readout: Tmax

If you can, please state the reported Tmax value of NS(=O)(=O)c1cccc(-c2ccc3nccc(-c4ccncc4)c3n2)c1 .
30 to 60 min

* * *

Answer each item with its documented remaining at 0.5 h, 0.1 µM.
assay: Metabolic stability in mouse liver microsomes assessed as parent compound remaining at 0.1 uM in presence of NADPH after 30 mins by LC-MS/MS analysis; assay type: ADME, microsome; settings: read-out: Stability
Answers are plain numbers, in %.

Worked examples follow.
mol.smiles: NS(=O)(=O)c1cccc(-c2ccc3nccc(-c4ccnc(C(F)(F)F)c4)c3n2)c1
result.unit: %
remaining at 0.5 h, 0.1 µM: 97

mol.smiles: O=S(=O)(c1cccc(-c2ccc3nccc(-c4ccncc4)c3n2)c1)N1CCC(O)CC1
result.unit: %
remaining at 0.5 h, 0.1 µM: 7

mol.smiles: O=S(=O)(NCc1ccccc1)c1cccc(-c2ccc3nccc(-c4ccncc4)c3n2)c1
result.unit: %
remaining at 0.5 h, 0.1 µM: 2

mol.smiles: NS(=O)(=O)c1cncc(-c2ccc3nccc(-c4cn[nH]c4)c3n2)c1
result.unit: %
remaining at 0.5 h, 0.1 µM: 2

If you can, please state the reported remaining at 0.5 h, 0.1 µM value of O=S(=O)(CCO)c1cccc(-c2ccc3nccc(-c4ccncc4)c3n2)c1 .
52

* * *

assay: Metabolic stability in human liver microsomes assessed as parent compound remaining at 0.1 uM in presence of NADPH after 30 mins by LC-MS/MS analysis; format: ADME, microsome; settings: read-out: Stability
Rule: measured remaining at 0.5 h, 0.1 µM below 30% gets rule met; anything equal to or greater than 30% gets rule not met.

mol.smiles: NS(=O)(=O)c1cccc(-c2ccc3nccc(-c4ccnc(C(F)(F)F)c4)c3n2)c1
label.class: rule not met

mol.smiles: O=S(=O)(CCO)c1cccc(-c2ccc3nccc(-c4ccncc4)c3n2)c1
label.class: rule not met

mol.smiles: CS(=O)(=O)Nc1cccc(-c2ccc3nccc(-c4ccncc4)c3n2)c1
label.class: rule not met

Is 30% strictly greater than the compound's reported remaining at 0.5 h, 0.1 µM? compound: NS(=O)(=O)c1ccc(-c2ccc3nccc(-c4ccncc4)c3n2)cc1
rule not met

Is 30% strictly greater than the compound's reported remaining at 0.5 h, 0.1 µM? compound: O=S(=O)(CCN1CCCC1)c1cccc(-c2ccc3nccc(-c4ccncc4)c3n2)c1
rule not met

Is 30% strictly greater than the compound's reported remaining at 0.5 h, 0.1 µM? compound: Nc1cccc(-c2ccc3nccc(-c4ccncc4)c3n2)c1
rule not met

Is 30% strictly greater than the compound's reported remaining at 0.5 h, 0.1 µM? compound: O=S(=O)(c1cccc(-c2ccc3nccc(-c4ccncc4)c3n2)c1)N1CCC(O)CC1
rule met

Is 30% strictly greater than the compound's reported remaining at 0.5 h, 0.1 µM? compound: O=S(=O)(NCC1COC1)c1cccc(-c2ccc3nccc(-c4ccncc4)c3n2)c1
rule met

Is 30% strictly greater than the compound's reported remaining at 0.5 h, 0.1 µM? compound: C[C@@H]1CN(S(=O)(=O)c2cccc(-c3ccc4nccc(-c5ccncc5)c4n3)c2)C[C@H](C)N1
rule not met

Is 30% strictly greater than the compound's reported remaining at 0.5 h, 0.1 µM? compound: O=S(=O)(NCCN1CCCC1)c1cccc(-c2ccc3nccc(-c4ccnc(C(F)(F)F)c4)c3n2)c1
rule met

Origin of the recorded values: ChEMBL document CHEMBL4118268
